- Test system: SK-MEL-5
- test_method_notes: NCI tumour cell line growth inhibition, 48 h
Calls of active or inactive are those of the source. Cut-off read from the data, not from the text of the source: active = GI50 up to about 1.1 µM and inactive = higher.
Classes used: 1 for active, 0 for inactive

• COc1ccc(C2=C(N)c3cc(OC)ccc3C2=O)cc1 = 0
• Nc1nc(N)c(N=Nc2ccc([As](=O)(O)O)c(O)c2)c(N)n1 = 0
• COc1cc([C@@H]2c3cc4c(cc3C[C@H]3COC(=O)[C@@H]32)OCO4)cc(OC)c1OC = 1
• C=CCN1C(=O)N/C(=C\c2ccc(Cl)cc2)C1=O = 0
• CC(NC1=CC(=O)c2ncccc2C1=O)C(O)c1ccccc1 (stereo not given) = 0

----------
- System: HCT-116
- test_method_notes: NCI tumour cell line growth inhibition, 48 h
Calls of active or inactive are those of the source. Rule as the data show it: active = GI50 up to about 1.1 µM and inactive = higher.
measured_quantity: GI50

* C[C@H]1COC2=C1C(=O)C(=O)c1c2ccc2c1CCCC2(C)C | 2.96 µM (inactive)
* O=C1NCCS(=O)(=O)N[C@@H](CC2=CC=CCC2)C(=O)N2CCCC12 (stereo not given in full) | > 100 µM (inactive)
* CC(=O)SC(C[N+](=O)[O-])c1ccc2c(c1)OCO2 (stereo not given) | 2.31 µM (inactive)
* C[N+](C)(C)CCOP(=O)(O)OP(=O)([O-])OCC1CCC(n2ccc(N)nc2=O)O1 (stereo not given) | > 100 µM (inactive)
* CN(C)c1nc(Cl)c2c(-c3ccccc3)c(-c3ccccc3)oc2n1 | 31.2 µM (inactive)
* CC[n+]1cnc(N)c2c(-c3ccc(Cl)cc3)cn(-c3ccc(C)cc3)c21 | 9.4 µM (inactive)
* O=S(=O)(O)c1ccc(/N=N/c2nc(C(F)(F)F)c(C(F)(F)F)[nH]2)cc1 | 37.7 µM (inactive)
* O=c1[nH]n(CCc2ccccc2CCl)c2ccc([N+](=O)[O-])cc12 | 52.1 µM (inactive)
* CC#CC1C(OC(=O)c2ccccc2)CCCC1(CI)N=[N+]=[N-] (stereo not given) | 32.8 µM (inactive)
* COC(=O)CCc1ccc2c(c1)CC1(Cc3ccccc3C1)C2 | 95.1 µM (inactive)

----------
Parameter GI50: see the listing below.
- Tested on: CCRF-CEM
- test_method_notes: NCI tumour cell line growth inhibition, 48 h
Calls of active or inactive are those of the source. Cut-off read from the data, not from the text of the source: active = GI50 up to about 1.1 µM and inactive = higher.
measured_quantity: GI50

- CCCCC(Sc1cc(Cl)c(C)cc1S(=O)(=O)Nc1nc(N)n[nH]1)C(=O)OC (stereo unspecified): > 10 µM (inactive)
- COC(=O)N/N=C(\C)CC(=O)Nc1ccc(Cl)cc1: > 100 µM (inactive)
- CC(=O)Oc1ccc(CO)cc1OC(C)=O: 27.6 µM (inactive)
- CCCNC(=S)N/N=C(\C)c1ccc(S(=O)(=O)N(C)c2ccccc2)cc1: > 31.6 µM (inactive)
- O=C1OCN(c2ccccc2)C12CCN(Cc1ccccc1)CC2: 15.5 µM (inactive)
- C1=CCC[C@@H]2CN3CCCC/C=C\CCCC[C@H]4C[C@H](CN(CCCCCCCC1)C4)[C@H]2CC3: 12.4 µM (inactive)
- CN(CCCn1ccnc1[N+](=O)[O-])CCCn1ccnc1[N+](=O)[O-]: 8.41 µM (inactive)
- C=CCN1C(=O)N/C(=C\c2ccc(Cl)cc2)C1=O: > 100 µM (inactive)
- O=C(NCc1ccccc1)c1c(O)nc2ccccc2c1O: > 100 µM (inactive)
- Cc1cc(/N=C/c2c(CO)cnc(C)c2O)c(/N=C/c2c(CO)cnc(C)c2O)cc1C: 17 µM (inactive)
- O=S(=O)(c1ccccc1)c1cccc2c1NCCC2: 46.8 µM (inactive)

----------
- Tested on: UACC-62
- test_method_notes: NCI tumour cell line growth inhibition, 48 h
Active and inactive are the calls of the source. Rule as the data show it: active = GI50 up to about 1.1 µM and inactive = higher.
measured_quantity: GI50

• CSc1nc(NC2OC(COC(C)=O)C(OC(C)=O)C(OC(C)=O)C2OC(C)=O)c2c(n1)OCC2=O (centres undefined) = > 100 µM (inactive)
• C/C(=C/CC[C@]1(CO)CC[C@]2(C)[C@H](CC[C@@H]3[C@@]4(C)CC[C@H](OC5OC(CO)C(O)C(O)C5OC5OC(CO)C(O)C(O)C5O)C(C)(C)[C@@H]4CC[C@]32C)[C@H]1O)CO (some centres undefined) = > 100 µM (inactive)
• CN1c2c(O)nc(N)nc2NCC1CCNc1ccc(C(=O)NC(CCC(=O)O)C(=O)O)cc1 (centres undefined) = 133 µM (inactive)
• Cc1ccc2sc3ccc(N)cc3c(=O)c2c1 = 51.9 µM (inactive)

----------
- Tested on: HOP-18
- test_method_notes: NCI tumour cell line growth inhibition, 48 h
Activity calls are given as the source filed them. Cut-off read from the data, not from the text of the source: active = GI50 up to about 1.1 µM and inactive = higher.
measured_quantity: GI50

• Nc1nc(N)c(CCCCc2ccccc2)c(C=O)n1 = 40.8 µM (inactive)
• COc1cc([C@@H]2c3cc4c(cc3C[C@H]3COC(=O)[C@@H]32)OCO4)cc(OC)c1OC = 33.6 µM (inactive)
• CN(C)C(=Nc1nc(N(C)C)s[s+]1)N(C)C = > 100 µM (inactive)
• COc1cccc(OC)c1/C=N\N1C(=O)c2ccccc2C1=O = > 100 µM (inactive)
• CC(=O)Nc1ccc(-c2nnc(SCC(=O)Nc3ccc(Cl)cc3Cl)o2)cc1 = 55.3 µM (inactive)

----------
Parameter GI50: see the listing below.
- Test system: MDA-N
- test_method_notes: NCI tumour cell line growth inhibition, 48 h
Activity calls are given as the source filed them. Rule as the data show it: active = GI50 up to about 1.1 µM and inactive = higher.
measured_quantity: GI50

* C=C1C(=O)O[C@H]2[C@@H]3O[C@@](C)(CC/C=C(\C)CCC[C@@H]2C)[C@H](O)C[C@@H]13 | 2.36 µM (inactive)
* Cc1coc2c1C[C@@]1(C)[C@H](CCC[C@@H]1C)[C@H]2O | 49.9 µM (inactive)
* Cc1ccc(S(=O)(=O)N/N=C2\CC3C4CCC3C2C4)cc1 (centres undefined) | > 100 µM (inactive)
* CNc1nc(N)nc(Nc2ccc(I)cc2)c1N=O | > 100 µM (inactive)
* OCCCCn1cc(Cn2ncc3c(NCc4ccccc4)ncnc32)nn1 | 42.8 µM (inactive)
* CCC(C)C(NC(=O)C(CCCC[N+](=N)N)NC(=O)C(CCCC[N+](=N)N)NC(=O)c1ccc(OC)cc1)C(=O)NC(CCCC[N+](=N)N)C(=O)N1CCCC1C(=O)NC(CCCCN)C(=O)NC(CC(C)C)C(N)=O (centres undefined) | > 100 µM (inactive)
* C[N+]12CCN(c3ccccc31)c1ccccc12.[O-][Cl+3]([O-])([O-])[O-] | 2.79 µM (inactive)
* COc1ccc2oc(=O)c(-c3csc(-c4ccccc4)n3)cc2c1 | > 100 µM (inactive)
* COc1ccc2c(c1)CC[C@@H]1C2CC[C@]2(C)C(=C=CP(=O)(O)O)CCC12 (some centres undefined) | > 100 µM (inactive)

----------
- System: RPMI-8226
- test_method_notes: NCI tumour cell line growth inhibition, 48 h
Active and inactive are the calls of the source. Rule as the data show it: active = GI50 up to about 1.1 µM and inactive = higher.
measured_quantity: GI50

• COc1ccccc1-n1nnc2c(N)nc(N)nc21 = > 100 µM (inactive)
• Fc1ccc(C(OCCN2CCC3CCC(C2)N3CCCc2ccccc2)c2ccc(F)cc2)cc1 (stereo unspecified) = 2.48 µM (inactive)
• Nc1nc(Cl)cc(NC23CC4CC(CC(C4)C2)C3)n1 = > 100 µM (inactive)
• S=C(Nc1c2c(nc3ccccc13)CCCC2)Nc1c2c(nc3ccccc13)CCCC2 = > 100 µM (inactive)
• CC#CC1C(OC(=O)c2ccccc2)CCCC1(CI)N=[N+]=[N-] (stereo unspecified) = 18.5 µM (inactive)
• CC1(C)COC2(OC1)C1=NS(=O)(=O)CC13CCC2C3(C)C (stereo unspecified) = > 100 µM (inactive)

----------
- Test system: U-251
- test_method_notes: NCI tumour cell line growth inhibition, 48 h
Calls of active or inactive are those of the source. Rule as the data show it: active = GI50 up to about 1.1 µM and inactive = higher.
measured_quantity: GI50

* Clc1cc2ncn(C3CCCCO3)c2cc1Cl (stereo unspecified) | 39.5 µM (inactive)
* COc1cc2c(cc1C1=NC(C)(C)CO1)OCO2 | > 100 µM (inactive)
* CC(=O)O[C@H]1CC[C@H]2[C@@H]3CCC4=C(C(=O)C=CC4(C)OC(C)=O)[C@H]3CC[C@]12C (stereo partly specified) | 82.6 µM (inactive)
* Clc1ccc(OCc2nnc(COc3ccc(OCc4nnc(COc5ccc(Cl)cc5Cl)o4)c(Cl)c3)o2)c(Cl)c1 | 23 µM (inactive)
* COC(=O)/C(=C/CC(N=C(c1ccccc1)c1ccccc1)C(=O)OC)N=C(c1ccccc1)c1ccccc1 (stereo unspecified) | > 100 µM (inactive)
* CC(=O)SC(C[N+](=O)[O-])c1ccc2c(c1)OCO2 (stereo unspecified) | 5.37 µM (inactive)
* CC(=O)Oc1ccc(CO)cc1OC(C)=O | > 100 µM (inactive)
* CN1/C(=C/C(=O)c2ccc(Cl)cc2)Nc2ccccc21 | 47.3 µM (inactive)
* CCCn1c2ccccc2c2ccc3c(c21)C(=O)C=CC3=O | > 7.59 µM (inactive)
* CC1(C)OC[C@@]2([C@@H]3CC[C@@H](C3)C2(C)C)N1O | 88.9 µM (inactive)
* O=C(Cc1ccccc1)NN1C(=O)/C(=C\c2cccc([N+](=O)[O-])c2)S/C1=N\c1ccccc1 | > 100 µM (inactive)
* COC(=O)C(Cc1c(-c2[nH]c3ccccc3c2CC(NC(C)=O)C(=O)OC)[nH]c2ccccc12)NC(C)=O (stereo unspecified) | > 100 µM (inactive)
* CCCCC(Sc1cc(Cl)c(C)cc1S(=O)(=O)Nc1nc(N)n[nH]1)C(=O)OC (stereo unspecified) | > 10 µM (inactive)
* CS/C(N)=N/c1cccc2ccccc12 | > 10 µM (inactive)
* COc1cc(C(=O)CBr)c(OC)cc1C | > 100 µM (inactive)
* O=c1[nH]c(Nc2nc3ccccc3[nH]2)nc(O)c1Cc1ccccc1 | 56.8 µM (inactive)
* CSc1ccc(/C=C/c2ccnc3ccccc23)cc1 | 12.8 µM (inactive)
* O=C1N2CCC[C@H]2CS1(=O)=O | 16.5 µM (inactive)
* CC(C)(C)OP(=O)(OC(C)(C)C)C(O)c1ccc(/C=C(\C#N)C(N)=O)cc1 (stereo unspecified) | > 100 µM (inactive)
* CC(=O)Oc1ccc2c(c1)c1c(=O)oc(C)nc1n2Cc1ccccc1 | 30.9 µM (inactive)
* C=C=C(CC(CC(=C)Br)(C(=O)OC)C(=O)OC)S(=O)(=O)c1ccccc1 | 1.5 µM (inactive)
